Molecular target: CHO S1P3/Ga15 NFAT-beta-lactamase reporter, FRET
Experiment: S1P3 receptor NFAT-BLA reporter inhibition, dose response, counter-screen for 5HT1E antagonist project, CHO cells, Ga15, NFAT beta-lactamase, FRET (AID 776)
Calls of active or inactive are those of the source.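 The calls were made as follows: active = compounds whose IC50 for cutting the S1P-driven reporter signal is at most 40 micromolar; inactive = IC50 above 40 micromolar.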
Outcome codes: TRUE = active, FALSE = inactive

{"molecule": "COc1ccc(N2C(=O)CC(NCc3ccncc3)C2=O)cc1 (stereo not given)", "class-name": "FALSE"}
{"molecule": "CSc1ccccc1N=CC1=C(O)CC(C)(C)CC1=O", "class-name": "TRUE"}
{"molecule": "O=C1C2C3C=CC(CO)(O3)C2C(=O)N1c1ccc(-c2ccccc2)cc1 (stereo not given)", "class-name": "FALSE"}
{"molecule": "CC(=O)Oc1ccc(N2C(=O)C3C(C2=O)C2(C)C=CC3(C)O2)cc1 (stereo not given)", "class-name": "TRUE"}
{"molecule": "COc1cc2c(cc1OC)C1=C(C#N)CC/C(=N\\S(=O)(=O)c3ccccc3)N1CC2", "class-name": "FALSE"}
